- ASSAY COMMENT: chemical genetic growth profiling, strain panel (AID 1159580);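 note: tested at 20 µM; growth read once vehicle control cultures reached saturation at 30 °C; 1 = growth at the plate median or of vehicle wells; lower values mean less growth of the strain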
- CONDITION NOTES: S. cerevisiae deletion strains, growth OD, locus YOL006C, strain TOP1
The whole screen tested about 5,500 compounds, of which about 2,000 (36%) were called active. About 18% were inconclusive and are not listed. Cut-off read from the data, not from the text of the source: active = normalized growth mostly below about 0.91 (no sharp cut-off); inconclusive = no clear call, values can overlap the other calls; inactive = mostly above about 0.92. Some of the results follow.
Write down the outcome that applies. Available outcomes: active, inactive

Some solved cases for reference:
{"columns": ["MOLECULE", "CLASS"],
 "data": [
  ["FC(F)(F)c1ccnc(-n2ccc(-c3cccs3)n2)n1", "active"],
  ["CC(=O)O[C@@](C)(CCC=C(C)C)C1CC=C(C)CC1 (stereo partly drawn)", "inactive"]
]}

Answer briefly: the call reported for CCc1ccc(CCOc2ccc(CC3SC(=O)NC3=O)cc2)nc1 (stereo not drawn) in this assay.
inactive

Answer briefly: the call reported for CNC(=S)NN=C(N)c1ccccn1 in this assay.
active

Answer briefly: the call reported for COc1ccc2c(c1)OC[C@@H](Cc1ccc(OC)c(OC)c1)[C@@H]2O in this assay.
inactive

Answer briefly: the call reported for COc1ccc(C[C@H]2NC[C@H](O)[C@H]2OC(C)=O)cc1 in this assay.
active

Answer briefly: the call reported for COc1cc(OC)c2c(c1)O[C@H](c1ccc(OC)c(OC)c1)[C@@H](O)C2 in this assay.
inactive

Answer briefly: the call reported for COc1ccc(-c2c(O)c3cc4c(c(CC=C(C)C)c3oc2=O)OC(C)(C)CC4)cc1 in this assay.
inactive

* * *

Answer each item with its documented normalized growth.
- ASSAY COMMENT: chemical genetic growth profiling, strain panel (AID 1159580);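 note: tested at 20 µM; growth read once vehicle control cultures reached saturation at 30 °C; 1 = growth at the plate median or of vehicle wells; lower values mean less growth of the strain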
- CONDITION NOTES: S. cerevisiae deletion strains, growth OD, locus YDL005C, strain med2, hits give low values
The whole screen tested about 5,500 compounds, of which about 2,000 (36%) were called active. Inconclusive results (about 18%) are left out. The list shows a part of the results.
One number for each entry.

Solved entries (count: 8):
{"columns": ["COMPOUND", "READING"],
 "data": [
  ["CC1(C)C2CC[C@]3(C)C(C(=O)C=C4[C@H]5C[C@@](C)(C(=O)O)CC[C@]5(C)CC[C@]43C)[C@@]2(C)CC[C@@H]1O (some centres undefined)", 1],
  ["CN=C(NC#N)NCCSCc1nc[nH]c1C", 1.01],
  ["CC(=O)O[C@H]1C(=O)[C@@]2(C)C([C@H](OC(=O)c3ccccc3)[C@]3(O)C[C@H](OC(=O)[C@H](O)[C@@H](NC(=O)c4ccccc4)c4ccccc4)C(C)=C1C3(C)C)[C@]1(OC(C)=O)CO[C@@H]1C[C@@H]2O (some centres undefined)", 1],
  ["CC(=O)[C@H]1CCC2C3C[C@H](C)C4=CC(=O)CC[C@]4(C)C3[C@@H](O)C[C@@]21C (some centres undefined)", 0.984],
  ["CN=C(NC#N)NCCSCc1nc(N=C(N)N)cs1", 0.986],
  ["CC1(C)C2CC[C@]3(C)C(C(=O)C=C4[C@@H]5C[C@@](C)(C(=O)O)CC[C@]5(C)CC[C@]43C)[C@@]2(C)CC[C@@H]1O (some centres undefined)", 1.01],
  ["CC(C)[C@H](N)C(=O)OCCOCn1cnc2c(=O)[nH]c(N)nc21", 1.02],
  ["O=C(/C=C/C=C/c1ccc2c(c1)OCO2)N1CCCCC1", 0.975]
]}

For each entry beneath this line, provide reported normalized growth.
1. CC(=O)O[C@]1(C(C)=O)CCC2C3C=C(Cl)C4=CC(=O)CC[C@]4(C)C3CC[C@@]21C (some centres undefined)
2. CN1CCc2cc3c(cc2C1O)OCO3 (centres undefined)
3. CC(=O)O[C@H]1C(=O)[C@@]2(C)C([C@H](OC(=O)c3ccccc3)[C@]3(O)C[C@H](O)C(C)=C1C3(C)C)[C@]1(OC(C)=O)CO[C@@H]1C[C@@H]2O (some centres undefined)
4. OCC(O)Cc1ccc2c(c1)OCO2 (centres undefined)
5. C[N+](C)(C)CCOP(=O)([O-])OP(=O)(O)OC[C@H]1OC(n2ccc(N)nc2=O)[C@H](O)[C@@H]1O (some centres undefined)

1. 0.991
2. 0.992
3. 1
4. 0.999
5. 0.977

Reference for the values: PubChem BioAssay AID1159580
